TESTED_SYSTEM: T1, Human CD137 ECD (human)
T1 construct: entry includes C-terminal His-tag and biotin acceptor peptide; also called human CD137 extracellular domain; 4-1BB
T1 sequence (chain, as listed by the source limits assumed): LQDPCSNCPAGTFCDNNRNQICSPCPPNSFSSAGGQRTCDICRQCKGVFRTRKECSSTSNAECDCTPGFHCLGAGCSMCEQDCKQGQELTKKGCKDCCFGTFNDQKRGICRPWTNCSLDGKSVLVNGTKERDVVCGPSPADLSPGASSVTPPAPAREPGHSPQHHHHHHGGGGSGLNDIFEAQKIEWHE
PROTOCOL_DESCRIPTION: Biacore SPR, vs parent H183/L072
Reported fold change of affinity values follow for various binders

# BINDER, UNIT_INFO, fold change of affinity
rows = [
    ("H183/L072 VL M27eY (antibody, name in Kabat numbering, V domains shown, Dual-Ig) VH: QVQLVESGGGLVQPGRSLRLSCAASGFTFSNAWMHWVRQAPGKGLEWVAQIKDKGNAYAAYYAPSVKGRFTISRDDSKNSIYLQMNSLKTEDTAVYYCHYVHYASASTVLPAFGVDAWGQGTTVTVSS VL: DIVMTQSPLSLPVTPGEPASISCQASQELVHYNRNTYLHWYQQKPGQAPRLLIYKVSNRFPGVPDRFSGSGSGTDFTLKISRVEAEDVGVYYCAQGTSVPFTFGQGTKLEIK", "fold", 0.7),
    ("H183/L072 VL H27dQ (antibody, name in Kabat numbering, V domains shown, Dual-Ig) VH: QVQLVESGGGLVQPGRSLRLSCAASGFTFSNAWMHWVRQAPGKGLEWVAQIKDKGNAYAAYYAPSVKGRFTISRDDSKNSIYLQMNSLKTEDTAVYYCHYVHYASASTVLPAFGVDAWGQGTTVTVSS VL: DIVMTQSPLSLPVTPGEPASISCQASQELVQMNRNTYLHWYQQKPGQAPRLLIYKVSNRFPGVPDRFSGSGSGTDFTLKISRVEAEDVGVYYCAQGTSVPFTFGQGTKLEIK", "fold", 0.6),
    ("H183/L072 VL G91H (antibody, name in Kabat numbering, V domains shown, Dual-Ig) VH: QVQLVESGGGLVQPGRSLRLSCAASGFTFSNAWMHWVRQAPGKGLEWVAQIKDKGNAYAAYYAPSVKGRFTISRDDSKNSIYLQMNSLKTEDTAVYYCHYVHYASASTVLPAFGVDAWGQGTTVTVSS VL: DIVMTQSPLSLPVTPGEPASISCQASQELVHMNRNTYLHWYQQKPGQAPRLLIYKVSNRFPGVPDRFSGSGSGTDFTLKISRVEAEDVGVYYCAQHTSVPFTFGQGTKLEIK", "fold", 0),
]
